- Test system: ABUTH
- procedure-details: Post-emergence herbicidal action against ABUTH
- Format: in vivo, Abutilon theophrasti
- protocol-conditions: application rate 80 g/ha, rated visually about 3 weeks after treatment
observable: Herbicidal action against [%] ABUTH (%)
Just the number please, in %, no unit attached.

Worked cases, answers included:
C=CC1(C(=O)NC2C=CC(C(=O)OC(C)C)C2)CC(c2cc(F)cc(F)c2)=NO1 (mixture of isomers) [Example I-034]; 80
COC(=O)C1C=CC(NC(=O)C2(C(F)(F)F)CC(c3cccc(C#N)c3)=NO2)C1 (mixture of isomers) [Example I-087]; 90
C=CC1(C(=O)N[C@H]2C=C[C@@H](C(=O)OCCOC)C2)CC(c2cc(F)cc(F)c2)=NO1 (stereo partly drawn) [Example I-018]; 90
COCCOC(=O)C1C=CC(NC(=O)C2(C(F)(F)F)CC(c3cc(F)cc(C#N)c3)=NO2)C1 (stereo not drawn) [Example I-100]; 80
O=C(OCC(F)(F)F)C1C=CC(NC(=O)C2(C(F)(F)F)CC(c3cccc(Cl)c3)=NO2)C1 (mixture of isomers) [Example I-051]; 80

Documented Herbicidal action against [%] ABUTH of CCOC(=O)C1C=CC(NC(=O)C2(C(F)(F)F)CC(c3cc(F)cc(F)c3)=NO2)C1 (mixture of isomers) [Example I-058] : 90

Documented Herbicidal action against [%] ABUTH of CCCS(=O)(=O)NC(=O)C1C=CC(NC(=O)C2(C(F)(F)F)CC(c3cc(F)cc(F)c3)=NO2)C1 (mixture of isomers) [II-33] : 80

Documented Herbicidal action against [%] ABUTH of COCCOC(=O)[C@@H]1C=C[C@H](NC(=O)[C@@]2(C)CC(c3cc(F)cc(F)c3)=NO2)C1 [Example I-092] : 90

Documented Herbicidal action against [%] ABUTH of COC(=O)C1=CC[C@H](NC(=O)C2(C)CC(c3cc(F)cc(F)c3)=NO2)C1 (stereo partly drawn) [III-10] : 90

Documented Herbicidal action against [%] ABUTH of COc1cc(OC)cc(C2=NOC(C(=O)NC3C=CC(C(=O)OCC(F)(F)F)C3)(C(F)(F)F)C2)c1 (mixture of isomers) [Example I-052] : 90

Documented Herbicidal action against [%] ABUTH of C=CC1(C(=O)NC2C=CC(C(=O)O)C2)CC(c2cc(F)cc(F)c2)=NO1 (mixture of isomers) [Example I-037] : 90

Documented Herbicidal action against [%] ABUTH of O=C(OCCCl)C1C=CC(NC(=O)C2(C(F)(F)F)CC(c3cc(F)cc(F)c3)=NO2)C1 (mixture of isomers) [Example I-067] : 80

Documented Herbicidal action against [%] ABUTH of CC(C)C(C#N)NC(=O)C1C=CC(NC(=O)C2(C(F)(F)F)CC(c3cc(F)cc(F)c3)=NO2)C1 (mixture of isomers) [II-35] : 80

Source: patent US12319664B2
